Source: patent US9796697B2

Molecular target: HIF-2α HIS TAG-PASB Domain (Homo sapiens, UniProt Q99814)
Construct: 100 nM HIF-2α HIS TAG-PASB Domain
Sequence (Q99814 239-348): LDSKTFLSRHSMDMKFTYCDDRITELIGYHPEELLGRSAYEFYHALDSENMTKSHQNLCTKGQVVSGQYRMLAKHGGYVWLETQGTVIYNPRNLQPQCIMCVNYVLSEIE
Experiment: HIF-2α Scintillation Proximity Assay (SPA)
Conditions: displacement of tritiated probe N-(3-Chlorophenyl-4,6-t2)-4-nitrobenzo[c][1,2,5]oxadiazol-5-amine from HIF-2α PASB domain
pEC50: −log10 of the molar value.
Consider the following molecules; for each one, report its pEC50.

Quick batch: pEC50 for everything below.
1. N#Cc1cc(F)cc(Oc2ccc3c4c2C(F)CC4(F)C(F)(F)S3(=O)=O)c1 (stereo not shown)
2. N#Cc1cc(F)cc(Oc2ccc3c4c2C(=O)CC4(O)C(F)(F)S3(=O)=O)c1 (stereo not shown)

Data returned:
1. 6.00 to 6.60
2. 6.00 to 6.60

Quick batch: pEC50 for everything below.
1. CC1CC2(O)c3c(ccc(Oc4cc(F)cc(C#N)c4)c31)S(=O)(=O)C2(F)F (stereo not shown)
2. C=C1CC2(O)c3c(ccc(Oc4cncc(C#N)c4)c31)S(=O)(=O)C2(F)F (stereo not shown)

Data returned:
["6.60 to 7.30", "> 7.30"]

Quick batch: pEC50 for everything below.
1. N#Cc1cc(F)cc(Oc2ccc3c4c2[C@@H](F)C[C@]4(O)C(F)(F)S3(=O)=O)c1
2. C=C1CC2(O)CS(=O)(=O)c3ccc(Oc4cc(F)cc(C#N)c4)c1c32 (stereo not shown)
3. C=C1CC2(N)c3c(ccc(Oc4cc(F)cc(C#N)c4)c31)S(=O)(=O)C2(F)F (stereo not shown)

Data returned:
["> 7.30", "< 6.00", "6.60 to 7.30"]
